test system: NCI/ADR-RES ovarian; assay: NCI-60 one-dose screen, 48 h; conditions: 10 µM unless noted
The panel holds about 83,000 compounds, 20% with a hit somewhere; the sample as a whole holds those more often. Activity calls are given as the source filed them. How the source made its calls: active means growth percent below 10; inactive means the rest.
Lab note: assign the record to one of active, inactive

Take a look at these entries with their results.
compound	class
CC1=C(Cl)C(=O)c2cc(C)ccc2C1=O	inactive
CN(C)CCCn1c2c(c3ccncc3c1=O)C(=O)c1ccccc1-2	active
COc1ccc(Nc2ncc(I)c(NCCCNC(=O)C3CCC3)n2)cc1	inactive
Cc1ccc(-c2csc(NC(=O)CSc3nc(N)cc(N)n3)n2)cc1	inactive
CN(C)/C(N)=N/N=C(\c1ccccc1)c1ccccn1	inactive

Hey, what did the test say about COc1ccc2c(c1)CC[C@@H]1[C@@H]2CC[C@]2(C)C3C(=CC(COC(C)=O)C4C(=O)N(c5ccc(Cl)cc5)C(=O)C43)C[C@@H]12 (stereo not given in full) ? inactive

Status in this test for COCCn1cc(-c2nc(-c3cc4cccnc4n3C)cs2)c2ccccc21 ? inactive

Per the assay record, what outcome was assigned to CCCCCCCCn1ccc2cc(NC(=O)CN=[N+]=[N-])ccc21 ? inactive

Called result for O=c1cc(-c2ccccc2)nc(SCc2nc3cc(Cl)c(Cl)cc3[nH]2)[nH]1 inactive

Any idea what this test logged for Cc1nn(-c2ccc([N+](=O)[O-])cc2)c2ncnc(N/N=C/c3ccccc3O)c12 ? active

###

test system: ACHN renal; test: NCI-60 one-dose screen, 48 h (100 = growth as untreated, 0 = no growth, -100 = all killed); details: 10 µM unless noted
This is part of a sample that, as a whole, favours compounds with a hit. Of some 83,000 tested, about 20% had one in any assay.
Reported values of growth for individual entries
Dear colleague, please return just the value in %, with no unit written.

Reference set, count: 5
compound	measurement type	observed result
COc1cccc(-c2cn3nc(-c4cn(C)c5ccccc45)sc3n2)c1	growth	104
C=CN(C(=O)N1CCN(c2cc3c(cc2F)c(=O)c(C(=O)O)cn3C2CC2)CC1)c1nc(-c2ccc(Cl)cc2)cs1	growth	70.5
CCOC(=O)c1c(NC(=O)c2ccccc2)sc2c3c(ccc12)OCN(C)C3	growth	-68.7
O=C(N/N=C/c1ccc(Cl)cc1)c1ccc(NC(=O)c2ccccn2)cc1	growth	-0.994
Nc1ncnc2c1N=C(c1ccc(Cl)cc1)CC(c1cccc(Nc3ccnc4cc(Cl)ccc34)c1)N2 (centres undefined)	growth	84.2

// moving on: another record for growth
Recall and state the measured growth for Cc1[nH]c(C(=O)Nc2ccccc2OC2CCN(CCN3CCOCC3)CC2)c(Cl)c1Cl . 94.7

###

tested on: EKVX NSCLC; test: NCI-60 one-dose screen, 48 h; conditions: 10 µM unless noted
The panel holds about 83,000 compounds, 20% with a hit somewhere; the sample as a whole holds those more often. Activity calls are given as the source filed them. The calls were made as follows: active = growth percent below 10; inactive = the rest.
Please reply with one of these outcomes: yes (active), no (inactive)

structure string	class
COc1cc2c(cc1-c1c(C)noc1C)ncc1nc(CN3CCOCC3)n([C@H](C)COC(F)F)c12	no
Nc1nc(N(Cc2ccccc2)c2ccccc2)c2cn[nH]c2n1	no
Cn1cc(-c2nonc2-c2c[nH]c3ccccc23)c2cc(Br)ccc21	no

We now examine a further molecule.
In this assay, the call recorded for COc1cc([C@@H](CCO)C[C@H](C)c2ccc3ccccc3c2)cc(OC)c1OC was what? no
